Test system: collagen production induced by TGF-β (NHDF cells)
Assay: Inhibitory effect on collagen production induced by TGF-β, [3H] proline uptake (NHDF cells)
Format: cell-based, human
Conditions: Homo sapiens, NHDF, 3 μM, TGF-β1 3 ng/ml
Counter-ions that a name gives are not always drawn.
test.readout: inhibition at 3 µM

- compound: "COCn1c(-c2ccccc2)c(/C=C/C(=O)N2CCc3cc(OC)c(OC)cc3C2)c2cccnc21 [Example 139, hydrochloride]"
  test.readout: "inhibition at 3 µM"
  experimental.value: "54%"

Exercise: State, for collagen production induced by TGF-β (NHDF cells), measured inhibition at 3 µM of the compound listed here: COc1cc2c(cc1OC)CN(C(=O)/C=C/c1c(-c3ccncc3)n(C)c3ncccc13)CC2 [Example 135, dihydrochloride]
Solution: 110%

Exercise: State, for collagen production induced by TGF-β (NHDF cells), measured inhibition at 3 µM of the compound listed here: COc1cc2c(cc1OC)C(CC(=O)O)N(C(=O)/C=C/c1c(-c3ccccc3)n(C)c3ncccc13)CC2 (centres unmarked)
Solution: 108%

Exercise: State, for collagen production induced by TGF-β (NHDF cells), measured inhibition at 3 µM of the compound listed here: COc1cccc2c(/C=C/C(=O)N(C)CCC(O)c3ccccc3)c(-c3ccccc3)n(C)c12 (centres unmarked)
Solution: 82%

Exercise: State, for collagen production induced by TGF-β (NHDF cells), measured inhibition at 3 µM of the compound listed here: CC(=O)Nc1cnc(N2CCN(C(=O)c3c(-c4ccccc4)n(C)c4ccc(C)cc34)CC2)cn1
Solution: 39%

Exercise: State, for collagen production induced by TGF-β (NHDF cells), measured inhibition at 3 µM of the compound listed here: Cn1c(-c2ccccc2)c(/C=C/C(=O)N[C@@H]2c3ccccc3C[C@@H]2O)c2cc3c(cc21)OCO3
Solution: 69%

Exercise: State, for collagen production induced by TGF-β (NHDF cells), measured inhibition at 3 µM of the compound listed here: Cc1ccc2c(c1)c(C(=O)N1CCN(c3cnc(C(=O)N(C)[C@@H](Cc4ccccc4)C(=O)O)cn3)CC1)c(-c1ccccc1)n2C
Solution: 122%

Exercise: State, for collagen production induced by TGF-β (NHDF cells), measured inhibition at 3 µM of the compound listed here: Cn1c(-c2ccccc2)c(/C=C/C(=O)N(CCc2cccs2)CC(=O)O)c2cccnc21
Solution: 72%

----------
Test system: collagen production induced by TGF-β (NHDF cells)
Experiment: Inhibitory effect on collagen production induced by TGF-β, [3H] proline uptake (NHDF cells)
Format: cell-based, human
Settings: Homo sapiens, NHDF, 1 μM, TGF-β1 3 ng/ml
Structures can show the parent of a compound that is named as a salt.
Entry flag: MET if inhibition at 1 µM reaches 90%; NOT MET if it does not.

- molecule: "COc1cc2c(cc1OC)CN(C(=O)/C=C/c1c(-c3ccccc3)n(C)c3ncc(C)cc13)CC2 [Example 123, hydrochloride]"
  discrete.label: "NOT MET"
- molecule: "COC(=O)c1ccc(-c2c(/C=C/C(=O)N3CCC(C(C)=O)(c4ccccc4)CC3)c3cc(C)ccc3n2C)cc1"
  discrete.label: "MET"
- molecule: "CC(=O)OCCN(Cc1ccccc1)C(=O)c1cnc(N2CCN(C(=O)c3c(-c4ccccc4)n(C)c4ccc(C)cc34)CC2)cn1"
  discrete.label: "NOT MET"
- molecule: "COc1ccc(CNC(=O)/C=C/c2c(-c3ccccc3)n(C)c3ccccc23)cc1"
  discrete.label: "NOT MET"
- molecule: "COc1cc2c(cc1OC)CN(C(=O)/C=C/c1c(-c3ccccc3)[nH]c3ncccc13)CC2 [Example 138, dihydrochloride]"
  discrete.label: "NOT MET"

Exercise: Check the entry COc1cc2c(cc1OC)CN(C(=O)/C=C/c1c(-c3ccc(F)cc3)n(C)c3ncccc13)CC2 [Example 140, hydrochloride] : does inhibition at 1 µM equal or exceed 90%?
Solution: MET

----------
We begin with a simple list: items and their reported inhibition at 3 µM.
System: collagen production induced by TGF-β (NHDF cells)
Experiment: Inhibitory effect on collagen production induced by TGF-β, [3H] proline uptake (NHDF cells)
Type: cell-based, human
Conditions: Homo sapiens, NHDF, 3 μM, TGF-β1 3 ng/ml
Procedure: As an index of collagen production, the uptake of [^3H] proline was measured. Using a 96-well microplate, normal human skin derived fibroblast (NHDF, 10^4/well) or human embryonic lung fibroblast (TIG-3, 10^4/well) were cultured in a 10% fetal calf serum (FCS)-containing Dulbecco's modified Eagle medium (DMEM) for one day. […]
Counter-ions that a name gives are not always drawn.
Answer in %, number only, no unit symbol.

Consider the following illustrative entries.
- compound: "Cn1c(-c2ccc3c(c2)OCO3)c(/C=C/C(=O)N[C@@H]2c3ccccc3C[C@@H]2O)c2ccccc21 [Example 113]"
  test.readout: "inhibition at 3 µM"
  endpoint.unit: "%"
  experimental.value: 88
- compound: "Cc1ncsc1CCNC(=O)c1cnc(N2CCN(C(=O)c3c(-c4ccccc4)n(C)c4ccc(Br)cc34)CC2)cn1 [Example 144, hydrochloride]"
  test.readout: "inhibition at 3 µM"
  endpoint.unit: "%"
  experimental.value: 85
- compound: "COc1ccc(-c2c(/C=C/C(=O)N(C)CCC(O)c3ccccc3)c3ccccc3n2C)cc1 (stereo not shown) [Example 119]"
  test.readout: "inhibition at 3 µM"
  endpoint.unit: "%"
  experimental.value: 75
- compound: "CC1c2cc3c(cc2CCN1C(=O)/C=C/c1c(-c2ccccc2)n(C)c2ncccc12)OCO3 (stereo not shown) [Example 28, hydrochloride]"
  test.readout: "inhibition at 3 µM"
  endpoint.unit: "%"
  experimental.value: 40
- compound: "Cc1ccc2c(c1)c(C(=O)N1CCN(c3ccccn3)CC1)c(-c1ccccc1)n2C [Compound A, hydrochloride, reference compound]"
  test.readout: "inhibition at 3 µM"
  endpoint.unit: "%"
  experimental.value: 9
- compound: "COc1cc2c(cc1OC)CN(C(=O)/C=C/c1c(-c3ccccc3)n(C)c3ncc(C)cc13)CC2 [Example 123, hydrochloride]"
  test.readout: "inhibition at 3 µM"
  endpoint.unit: "%"
  experimental.value: 125

Exercise: Return reported inhibition at 3 µM. Input compound: CC1c2cc(O)c(O)cc2CCN1C(=O)/C=C/c1c(-c2ccc3c(c2)OCO3)n(C)c2ccccc12 (stereo not shown) [Example 114]
Solution: 94

----------
We begin with a simple list: items and their reported inhibition at 1 µM.
System: collagen production induced by TGF-β (NHDF cells)
Test: Inhibitory effect on collagen production induced by TGF-β, [3H] proline uptake (NHDF cells)
Assay type: cell-based, human
Conditions: Homo sapiens, NHDF, 1 μM, TGF-β1 3 ng/ml
Where a name gives a salt, the structure may show the parent alone.
Answer in %, number only, no unit symbol.

Consider the following illustrative entries.
- molecule: "COc1cc2c(cc1OC)CN(C(=O)/C=C/c1c(-c3ccccc3)n(C)c3cccnc13)CC2 [Example 136, hydrochloride]"
  endpoint.unit: "%"
  inhibition at 1 µM: 66
- molecule: "Cc1ncsc1CCNC(=O)c1cnc(N2CCN(C(=O)c3c(-c4ccccc4)n(C)c4ccc(Br)cc34)CC2)cn1 [Example 144, hydrochloride]"
  endpoint.unit: "%"
  inhibition at 1 µM: 78

We now examine a further molecule.
Exercise: Return reported inhibition at 1 µM. Input molecule: Cn1c(-c2ccccc2)c(/C=C/C(=O)N2CCC(n3c(=O)[nH]c4ccccc43)CC2)c2cccnc21 [Example 29, hydrochloride]
Solution: 64

----------
Test system: collagen production induced by TGF-β (NHDF cells)
Assay: Inhibitory effect on collagen production induced by TGF-β, [3H] proline uptake (NHDF cells)
Assay type: cell-based, human
Conditions: Homo sapiens, NHDF, 1 μM, TGF-β1 3 ng/ml
Structures can show the parent of a compound that is named as a salt.
test.readout: inhibition at 1 µM (%)
Answer in %, number only, no unit symbol.

Consider the following illustrative entries.
- compound: "CC(=O)C1(c2ccccc2)CCN(C(=O)C=Cc2c(-c3ccc(C(=O)O)cc3)n(C)c3ccc(C)cc23)CC1"
  endpoint.unit: "%"
  inhibition at 1 µM: 43
- compound: "Cc1ncsc1CCNC(=O)c1cnc(N2CCN(C(=O)c3c(-c4ccccc4)n(C)c4ccc(F)cc34)CC2)cn1 [Example 147, dihydrochloride]"
  endpoint.unit: "%"
  inhibition at 1 µM: 29

We now examine a further compound.
Exercise: Return reported inhibition at 1 µM. Input compound: COc1cc2c(cc1OC)CN(C(=O)/C=C/c1c(-c3ccncc3)n(C)c3ncccc13)CC2 [Example 135, dihydrochloride]
Solution: 78

----------
Assay: Measurement of concentration of compound in rat plasma
Assay type: in vivo
Details: oral 10 mg/kg, after 0.25 hours
Counter-ions that a name gives are not always drawn.
test.readout: concentration at 0.25 h

Consider the following illustrative entries.
- compound: "Cc1ccc2c(c1)c(C(=O)N1CCN(c3ccc(C(=O)N(C)C)cn3)CC1)c(-c1ccccc1)n2C.Cl [Example 120, hydrochloride]"
  concentration at 0.25 h: "6400 to 10000 ng/mL"
- compound: "CC1c2cc3c(cc2CCN1C(=O)/C=C/c1c(-c2ccccc2)n(C)c2ncccc12)OCO3 (centres unmarked) [Example 28, hydrochloride]"
  concentration at 0.25 h: "71 to 170 ng/mL"
- compound: "Cc1ccc2c(c1)c(C(=O)N1CCN(c3cnc(C(=O)NCCCn4ccnc4)cn3)CC1)c(-c1ccccc1)n2C [Example 31]"
  concentration at 0.25 h: "320 to 370 ng/mL"

Exercise: Return reported concentration at 0.25 h. Input compound: Cc1ccc2c(c1)c(C(=O)N1CCN(c3cnc(C(=O)NCCc4scnc4C)cn3)CC1)c(-c1ccccc1)n2C [Example 5, trihydrochloride]
Solution: 1400 to 2300 ng/mL

Exercise: Return reported concentration at 0.25 h. Input compound: COc1cc2c(cc1OC)C(C)N(C(=O)/C=C/c1c(-c3ccccc3)n(C)c3ncccc13)CC2 (centres unmarked) [Example 3, hydrochloride]
Solution: 120 to 660 ng/mL

Exercise: Return reported concentration at 0.25 h. Input compound: Cn1c(-c2ccccc2)c(/C=C/C(=O)N2CCC(n3c(=O)[nH]c4ccccc43)CC2)c2cccnc21 [Example 29, hydrochloride]
Solution: 330 to 940 ng/mL

Exercise: Return reported concentration at 0.25 h. Input compound: Cc1ccc2c(c1)c(C(=O)N1CCN(c3ccc(-c4nnn(CCO)n4)cn3)CC1)c(-c1ccccc1)n2C.Cl [Example 9, hydrochloride]
Solution: 1300 to 3900 ng/mL

Exercise: Return reported concentration at 0.25 h. Input compound: CO[C@H]1Cc2ccccc2[C@H]1NC(=O)/C=C/c1c(-c2ccccc2)n(C)c2ncccc12 [Example 4, hydrochloride]
Solution: 390 to 500 ng/mL

Reference for the values: patent US20050014942A1
